tested on: mice (p-phenylquinone-induced abdominal writhing); experiment: P-phenylquinone-induced abdominal writhing test in mice; assay type: in vivo, Male Charles River mice (Swiss Strain); settings: Mus musculus, sc, 20 min; subcutaneous; 20 min pretreatment; data referred to the free base; read-out: ANALGESIA MOUSE WRITHING ED50
Where a name gives a salt, the structure may show the parent alone.
test-readout: ED50 (mg/kg)
// units = mg/kg; emit number, no label

{"columns": ["compound", "ED50, mg/kg"],
 "data": [
  ["CC1(C)CCCN(C(=O)Cc2ccc(C(F)(F)F)cc2)C1CN1CCC(O)C1 (stereo not drawn) [Example 5, hydrochloride]", 0.089],
  ["CC1(C)CCN(C(=O)Cc2ccc3c(c2)CCCC3=O)C(CN2CCC(F)C2)C1 (stereo not drawn) [Example 25, hydrochloride]", 0.005],
  ["O=C(Cc1ccc(Cl)c(Cl)c1)N1CCCCC1CN1CCC(F)C1 (stereo not drawn) [Example 18, hydrochloride]", 0.002],
  ["CC1(C)CCCN(C(=O)Cc2ccc(Cl)c(Cl)c2)C1CN1CCC(O)C1 (stereo not drawn) [Example 6, hydrochloride]", 0.081],
  ["CC1(C)CCN(C(=O)Cc2ccc(Cl)c(Cl)c2)C(CN2CCC(O)C2)C1 (stereo not drawn) [Example 7, hydrochloride hemihydrate]", 0.037],
  ["CC1(C)CCCN(C(=O)Cc2ccc(C(F)(F)F)cc2)C1CN1CCC(F)C1 (stereo not drawn) [Example 23, hydrochloride]", 0.003]
]}

Query: Find the recorded ED50 belonging to O=C1CCCc2cc(CC(=O)N3CCCCC3CN3CCC(F)C3)ccc21 (stereo not drawn) [Example 22, hydrochloride] and report it.
Reply: 0.005

Query: Fill blank: measured ED50 of the compound O=C1CCCc2cc(CC(=O)N3CCCCC3CN3CCC(O)C3)ccc21 (stereo not drawn) is ____.
Reply: 1.78

Query: What value of ED50 has been recorded for this entry: CC1(C)CN(C(=O)Cc2ccc(Cl)c(Cl)c2)C(CN2CCC(O)C2)c2ccccc21 (stereo not drawn) [Example 14, hydrochloride]
Reply: 0.087

* * *

Quick reference: DURATION OF ACTION M. TAIL-FLICK GRADED % ACTIVITY AT MTFQ ED50, 90' of the listed items.
system: mice (tail-flick); assay: Duration of action, mouse tail-flick graded, % activity at MTFQ ED50; assay type: in vivo, Male Charles River mice (Swiss Strain); conditions: 90', sc, data referred to the free base
Counter-ions that a name gives are not always drawn.
The answer is to be given in %; state only the numeric part.

{"columns": ["molecule", "units-label", "observed-measurement"],
 "data": [
  ["O=C(Cc1ccc(Cl)c(Cl)c1)N1CCCCC1CN1CCC(F)C1 (stereo not drawn) [Example 18, hydrochloride]", "%", 34],
  ["CC1(C)CCN(C(=O)Cc2ccc3c(c2)CCCC3=O)C(CN2CCC(F)C2)C1 (stereo not drawn) [Example 25, hydrochloride]", "%", 56]
]}

Query: Find DURATION OF ACTION M. TAIL-FLICK GRADED % ACTIVITY AT MTFQ ED50, 90' (mice (tail-flick)) for the entry O=C1CCCc2cc(CC(=O)N3CCCCC3CN3CCC(O)C3)ccc21 (stereo not drawn)
Reply: 80

Entry source: patent US5322848A
